target-of-assay: T1, 4H1373-bA
T1 chain: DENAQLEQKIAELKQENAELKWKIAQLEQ
assay-protocol: two-hybrid library CCNG1;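 also: natural log of median RNA to DNA barcode read ratio; higher means stronger binding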
Kindly return Satisfied if reported interaction score is no lower than -0.7; return Not satisfied if it is lower.

DENAQLEQKIAELKQENAELKWKIAQLEQ [4H1373-bA]: Satisfied
DENAQLEQENAELKQEIAELEWKIAQLKQ [4H1222-bA]: Satisfied
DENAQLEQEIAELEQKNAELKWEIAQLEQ [4H1081-bA]: Satisfied

Q) Has DENAQLEQKIAELEQKNAELKWEIAQLKQ [4H1338-bA] a recorded interaction score greater than or equal to -0.7?
A) Not satisfied
